Data origin, for the record: paper PMC5540273

system: SNRK; conditions: concentration: 1 μM,replicates: in singlicate; n = 1;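 note: KINOMEscan kinase panel screen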
measure name: %Inh (%)
Value expressed in %; do not type the unit.

Worked set:
CS(=O)(=O)Nc1ccc(-c2ccnc3[nH]ccc23)cc1: 0
Cn1ccc2ncnc(Oc3ccc(NC(=O)Nc4cnn(C(C)(C)C)c4)c(Cl)c3)c21: 0
COc1ccc(Nc2nccc(N3CCC(NC(=O)c4cccc(C#N)c4)C3)n2)cc1 (stereo not drawn): 0
Cc1ccc(CC(=O)N2CCc3cc(-c4cn(C)c5ncnc(N)c45)ccc32)cc1: 8
C[C@@H]1CNc2c(sc3ccc4nc(-c5ccc(O)cc5)ccc4c23)C(=O)N1: 2
Cn1ccc2ncnc(Oc3ccc(NC(=O)Nc4cccc(C(F)(F)F)c4)c(Cl)c3)c21: 0
CNC(=O)c1ccccc1Nc1nc(Nc2cccc(CS(C)(=O)=O)c2)ncc1C.O=CO: 0
NC(=O)Nc1sc(-c2ccc(F)cc2)cc1C(N)=O: 6

%Inh measured on C[C@@H](Oc1cc(-n2cnc3cc(-c4ccncc4)ccc32)sc1C(N)=O)c1ccccc1Cl = 3

%Inh measured on CS(=O)c1ccc(-c2coc3ccc(-c4n[nH]c(=O)o4)cc23)cc1 (stereo not drawn) = 10

%Inh measured on O=C(Nc1ccccc1)c1cccc(Oc2ccc3nccn3n2)c1 = 0

%Inh measured on Cn1ccc2ncnc(Oc3ccc(NC(=O)Nc4cc(C(C)(C)C)on4)c(Cl)c3)c21 = 13

%Inh measured on COc1cccc(CNC(=O)NC2CCN(c3ccnc(Nc4cc(OC)c(OC)c(OC)c4)n3)C2)c1 (stereo not drawn) = 0

%Inh measured on COc1cc2nccc(Nc3ccc(Oc4ccccc4)cc3)c2cc1OC.Cl = 0

%Inh measured on COc1cc2c(Nc3ccc(NC(=O)c4ccccc4)cc3)ncnc2cc1OCCCN1CCOCC1 = 0

%Inh measured on CSc1nccc(-c2c(-c3ccc(F)cc3)ncn2CCCN2CCOCC2)n1.Cl = 1

%Inh measured on O=C(Nc1cccc(Oc2ccc3nccn3n2)c1)Nc1cccc(C(F)(F)F)c1 = 0

%Inh measured on C[C@@H](Oc1cc(-n2cnc3ccc(-c4ccncc4)cc32)sc1C(N)=O)c1ccccc1Cl = 0
